As shown below, each of these binders has a reported β-Arrestin EC50 value.
Target: chemokine receptor CXCR7 (UniProt P25106 1-362, limits assumed)
Sequence (P25106 whole entry): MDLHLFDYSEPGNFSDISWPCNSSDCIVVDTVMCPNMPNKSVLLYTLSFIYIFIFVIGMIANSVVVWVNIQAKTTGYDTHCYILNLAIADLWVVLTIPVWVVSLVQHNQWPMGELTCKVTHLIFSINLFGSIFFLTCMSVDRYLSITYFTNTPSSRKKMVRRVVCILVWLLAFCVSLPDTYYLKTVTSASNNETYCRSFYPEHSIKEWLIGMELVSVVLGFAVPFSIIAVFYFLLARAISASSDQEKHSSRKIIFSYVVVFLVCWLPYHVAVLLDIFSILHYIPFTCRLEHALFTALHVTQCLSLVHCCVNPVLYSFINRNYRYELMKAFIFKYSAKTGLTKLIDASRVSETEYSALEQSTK
Experiment: cell-based or functional assay
Square brackets hold non-standard residues; d marks the D form. Primed or numbered codes have the meaning given here. Phe(4-CF3) = N[C@@H](Cc1ccc(C(F)(F)F)cc1)C(=O)O; 1Nal = N[C@@H](Cc1cccc2ccccc12)C(=O)O; Pro(3S-OH) = O=C(O)[C@H]1NCC[C@@H]1O; dPip′ = not defined here
Give the number; nM is assumed, so skip it.

[[record]]
binder = "cyclo(I[dR]R[Phe(4-CF3)][dP]T) (SMILES CC[C@H](C)[C@@H]1NC(=O)[C@H]([C@@H](C)O)NC(=O)[C@H]2CCCN2C(=O)[C@H](Cc2ccc(C(F)(F)F)cc2)NC(=O)[C@H](CCCNC(=N)N)NC(=O)[C@@H](CCCNC(=N)N)NC1=O) [cyclo(-Ile-^DArg-Arg-Phe(4CF3)-^DPro-Thr-)]"
parameter_measured = "β-Arrestin EC50"
unit_abbreviation = "nM"
endpoint_value = 4.5


Lookup: Endpoint output: β-Arrestin EC50 of cyclo([1Nal][dR]RW[dP][Pro(3S-OH)]) (SMILES N=C(N)NCCC[C@@H]1NC(=O)[C@@H](CCCNC(=N)N)NC(=O)[C@H](Cc2cccc3ccccc23)NC(=O)[C@@H]2[C@@H](O)CCN2C(=O)[C@H]2CCCN2C(=O)[C@H](Cc2c[nH]c3ccccc23)NC1=O) [cyclo(-1Nal-^DArg-Arg-Trp-^DPro-Pro((3S)OH)-)] . Value?
Found: 13.7

Lookup: Param item = cyclo(I[dR]RW[dPip′][Pro(3S-OH)]) [cyclo(-Ile-^DArg-Arg-Trp-^DPip-Pro((3S)OH)-)] ; retrieve measured β-Arrestin EC50.
Found: 8.2

Lookup: Item cyclo(I[dT]RW[dP]T) (SMILES CC[C@H](C)[C@@H]1NC(=O)[C@H]([C@@H](C)O)NC(=O)[C@H]2CCCN2C(=O)[C@H](Cc2c[nH]c3ccccc23)NC(=O)[C@H](CCCNC(=N)N)NC(=O)[C@@H]([C@H](C)O)NC1=O) [cyclo(-Ile-^DThr-Arg-Trp-^DPro-Thr-)] has what recorded β-Arrestin EC50?
Found: 53.2
